Parameter remaining at 0.5 h: see the listing below.
# protocol: Stability in 20% mouse serum/PBS
# Type: in vitro ADME
# test context: mouse, 20% mouse serum in PBS
Where a SMILES comes first, the peptide text is derived from it. [ ]: non-standard residue; d: D form. The star is where a group is joined. Cha = N[C@@H](CC1CCCCC1)C(=O)O; Bz = O=C(c1ccccc1)*
Express your answer in %, writing the number without its unit.

Below, 2 compounds whose answers are already recorded.
# input Given CC[C@H](C)[C@H](NC(=O)[C@H](Cc1ccc(O)cc1)NC(=O)[C@H](C)NC(=O)[C@H](CCCNC(=N)N)NC(=O)c1ccccc1)C(=O)N[C@@H](CC(N)=O)C(=O)N[C@@H](CC(C)C)C(=O)N[C@H](C(=O)N[C@H](C(=O)N[C@@H](CCCNC(=N)N)C(=O)N[C@@H](CCC(N)=O)C(=O)N[C@@H](CCCNC(=N)N)C(=O)N[C@@H](Cc1ccc(O)cc1)C(N)=O)[C@@H](C)O)[C@@H](C)CC [Compound 1, benzoyl-[Ala^26,Ile^28,31]PYY(25–36)] (Bz-RAYINLITRQRY-NH2) , respond with its remaining at 0.5 h.
# output 5

# input Given CC[C@H](C)[C@H](NC(=O)[C@H](CC1CCCCC1)NC(=O)[C@H](Cc1c[nH]cn1)NC(=O)[C@H](CCCNC(=N)N)NC(=O)c1ccccc1)C(=O)N[C@@H](CC(N)=O)C(=O)N[C@@H](CC(C)C)C(=O)N[C@H](C(=O)N[C@H](C(=O)N[C@@H](CCCNC(=N)N)C(=O)N[C@@H](CCC(N)=O)C(=O)N[C@@H](CCCNC(=N)N)C(=O)N[C@@H](Cc1ccc(O)cc1)C(N)=O)[C@@H](C)O)[C@@H](C)CC [Compound 3] (Bz-RH[Cha]INLITRQRY-NH2) , respond with its remaining at 0.5 h.
# output 10

With those in mind, consider the next compound.
# input Given CC[C@H](C)[C@H](NC(=O)[C@H](CC1CCCCC1)NC(=O)[C@H](Cc1c[nH]cn1)NC(=O)[C@H](CCCNC(=N)N)NC(=O)c1ccccc1)C(=O)N[C@@H](CC(N)=O)C(=O)N[C@@H](CC(C)C)C(=O)N[C@H](C(=O)N[C@H](C(=O)N[C@@H](CCCNC(=N)N)C(=O)N[C@@H](CCC(N)=O)C(=O)N[C@@H](CCCNC(=N)N)C(=O)N[C@@H](CC1CCCCC1)C(N)=O)[C@@H](C)O)[C@@H](C)CC [Compound 4] (Bz-RH[Cha]INLITRQR[Cha]-NH2) , respond with its remaining at 0.5 h.
# output 102

====

# target or test system: human Y2R (Homo sapiens, UniProt P49146)
# Sequence (P49146 whole entry): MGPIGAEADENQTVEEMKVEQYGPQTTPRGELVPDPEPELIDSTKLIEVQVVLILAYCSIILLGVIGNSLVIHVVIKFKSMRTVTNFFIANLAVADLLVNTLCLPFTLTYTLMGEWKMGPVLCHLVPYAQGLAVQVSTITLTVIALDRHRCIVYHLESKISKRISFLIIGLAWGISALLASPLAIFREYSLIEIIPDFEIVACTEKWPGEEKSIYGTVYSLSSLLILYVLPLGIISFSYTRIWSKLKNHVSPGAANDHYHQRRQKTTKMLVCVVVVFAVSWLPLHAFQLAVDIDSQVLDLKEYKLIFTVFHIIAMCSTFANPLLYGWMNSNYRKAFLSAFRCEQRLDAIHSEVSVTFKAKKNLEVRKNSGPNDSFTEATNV
# protocol: biochemical
Where a SMILES comes first, the peptide text is derived from it. [ ]: non-standard residue; d: D form. The star is where a group is joined. Cyclohexanecarbonyl = O=C(C1CCCCC1)*; Cha = N[C@@H](CC1CCCCC1)C(=O)O; 4Amb = NCc1ccc(C(=O)O)cc1; Aib = CC(C)(N)C(=O)O
quantity measured: EC50 (nM)
Express your answer in nM, writing the number without its unit.

# input Given CC(C)C[C@H](NC(=O)[C@H](CC(N)=O)NC(=O)[C@H](CC1CCCCC1)NC(=O)[C@H](CC1CCCCC1)NC(=O)[C@H](Cc1cnc[nH]1)NC(=O)[C@H](CCCNC(=N)N)NC(=O)c1ccc(CN)cc1)C(=O)NC(C)(C)C(=O)N[C@H](C(=O)N[C@@H](CCCNC(=N)N)C(=O)N[C@@H](CCC(N)=O)C(=O)N[C@@H](CCCNC(=N)N)C(=O)N[C@@H](CC1CCCCC1)C(N)=O)[C@@H](C)O [Compound 24] (H-[4Amb]RH[Cha][Cha]NL[Aib]TRQR[Cha]-NH2) , respond with its EC50.
# output 0.48

Next:
# input Given CC[C@H](C)[C@H](NC(=O)[C@H](CC1CCCCC1)NC(=O)[C@H](Cc1c[nH]cn1)NC(=O)[C@H](CCCNC(=N)N)NC(=O)C1CCCCC1)C(=O)N[C@@H](CC(N)=O)C(=O)N[C@@H](CC(C)C)C(=O)NC(C)(C)C(=O)N[C@H](C(=O)N[C@@H](CCCNC(=N)N)C(=O)N[C@@H](CCC(N)=O)C(=O)N[C@@H](CCCNC(=N)N)C(=O)N[C@@H](CC1CCCCC1)C(N)=O)[C@@H](C)O [Compound 16] (Cyclohexanecarbonyl-RH[Cha]INL[Aib]TRQR[Cha]-NH2) , respond with its EC50.
# output 1.6
